ASSAY_SUMMARY: A quantitative high throughput screen for small molecules that induce DNA re-replication in MCF 10a normal breast cells. Note: nearly all actives have a fitted effect of over 50% in size.
ASSAY_CONTEXT: MCF 10A DNA re-replication, Hoechst nuclear intensity, 48 h; series mostly up to 46.1 µM
Screen size: about 350,000 compounds; about 9,900 (2.8%) were called active. Not shown: some 15% with an inconclusive outcome. Calls come from the whole dose curve; as a rule, active = well fitted activation curve with a large enough effect; inconclusive = small, poorly fitted or top-dose-only effect; inactive = no such curve, though single readings can be large or run the other way. The entries come from a sample that favours actives as a whole.
Pick from 1 (yes) (active), 0 (no) (inactive) when you respond.

Q: Query: recorded result category for "C=CCOC(=O)C1=C[C@@H](c2ccc3c(c2)OCO3)C[C@@H](OCCCCO)O1" in this test
A: 0 (no)

Q: Query: recorded result category for "O=C(Nc1ccc2ccccc2c1)Nc1ccc2snnc2c1" in this test
A: 1 (yes)

Q: Query: recorded result category for "CCc1ccccc1NC(=O)c1ccc2snnc2c1" in this test
A: 0 (no)

Q: Query: recorded result category for CCCNC(=S)NC1CC2CCCC(C1)N2CC(C)C (stereo unspecified) in this test
A: 1 (yes)

Q: Query: recorded result category for "Cn1nc(C(=O)OCC(=O)N(Cc2ccccc2)C(C)(C)C)c2ccccc2c1=O" in this test
A: 0 (no)

Q: Query: recorded result category for "CC(=O)n1cc([C@H]2C=C(C(=O)N3CCOCC3)O[C@@H](OCc3ccc(CO)cc3)C2)c2ccccc21" in this test
A: 0 (no)

Q: Query: recorded result category for "NC(=O)C1(N2CCCC2)CCN(Cc2ccccc2)CC1" in this test
A: 0 (no)

Q: Query: recorded result category for COc1ccc(C2NCCCC2c2ccccc2)cc1 (stereo unspecified) in this test
A: 0 (no)

Q: Query: recorded result category for CCCN1C2CCCC1CC(NC(=O)NC13CC4CC(CC(C4)C1)C3)C2 (stereo unspecified) in this test
A: 0 (no)

Q: Query: recorded result category for "COc1cccc(CC(=O)Nc2nc(-c3ccc(OC)c(OC)c3)cs2)c1" in this test
A: 0 (no)

Q: Query: recorded result category for C=CCN1C2CCCC1CC(NC(=S)Nc1cccc(OC)c1)C2 (stereo unspecified) in this test
A: 0 (no)

----------
ASSAY_SUMMARY: A quantitative high throughput screen for small molecules that induce DNA re-replication in MCF 10a normal breast cells. Note: nearly all actives have a fitted effect of over 50% in size.
ASSAY_CONTEXT: MCF 10A DNA re-replication, Hoechst nuclear intensity, 48 h; series mostly up to 46.1 µM
In all, about 350,000 compounds went through this assay and about 9,900 (2.8%) were called active. Roughly 15% stayed inconclusive and do not appear here. The full list was thinned out, with actives kept by preference.
PROPERTY_NAME: outcome

{"CHEM_SMILES": "CNC[C@H]1Oc2c(NC(=O)C3CCCCC3)cccc2C(=O)N([C@H](C)CO)C[C@@H]1C", "outcome": "inactive"}
{"CHEM_SMILES": "COc1ccc2nc(SCC(=O)Nc3c(C)cc(C)cc3C)[nH]c2c1", "outcome": "inactive"}
{"CHEM_SMILES": "COCc1nnc(NC(=O)c2ccc3c(c2)OCO3)s1", "outcome": "inactive"}
{"CHEM_SMILES": "Cc1ccc(O)c(CNc2nc3ccccc3[nH]2)c1", "outcome": "inactive"}

Next molecule, outcome to be filled in.
Q: Could you tell me which outcome is on file for "C#CCOCCOCCOCCNc1nc(N2CCN(C(=O)Cn3cc(CCCCN)nn3)CC2)nc(N2CCN(C(=O)[C@H](CCCCN)n3cc(CCC(=O)O)nn3)CC2)n1" ?
A: inactive

----------
ASSAY_SUMMARY: A quantitative high throughput screen for small molecules that induce DNA re-replication in MCF 10a normal breast cells. Note: nearly all actives have a fitted effect of over 50% in size.
ASSAY_CONTEXT: MCF 10A DNA re-replication, Hoechst nuclear intensity, 48 h; series mostly up to 46.1 µM
The campaign covered roughly 350,000 compounds. About 9,900 (2.8%) were called active. Not shown: some 15% with an inconclusive outcome. The call rests on the fitted dose curve; in most records, active means well fitted activation curve with a large enough effect; inconclusive means small, poorly fitted or top-dose-only effect; inactive means no such curve, though single readings can be large or run the other way. The sample as a whole holds a higher share of actives than the screen did.
Pick from active, inactive when you respond.

Q: Query: recorded result category for "O=C(Nc1ccc2oc(-c3ccc4ccccc4c3)nc2c1)c1cccs1" in this test
A: active

Q: Query: recorded result category for "O=C(c1ccc(Oc2ccc(Cl)cc2)c([N+](=O)[O-])c1)N1CCCC1" in this test
A: inactive

Q: Query: recorded result category for "Oc1cccc(CCc2ccccn2)c1" in this test
A: inactive

Q: Query: recorded result category for "COC[C@@H]1NS(=O)(=O)c2ccc(Br)cc2O[C@H]1c1ccccc1" in this test
A: inactive

Q: Query: recorded result category for "CCCC(=O)NC(=S)Nc1ccc(CN2CCOCC2)cc1" in this test
A: active

Q: Query: recorded result category for "O=C(Nc1ccccc1N1CCCC1)c1ccc2ccccc2c1" in this test
A: inactive

Q: Query: recorded result category for "CC1CCN(C(=S)c2cccc([N+](=O)[O-])c2)CC1" in this test
A: inactive

Q: Query: recorded result category for "O=C(Cc1cccc2ccccc12)Nc1ccc2oc(-c3ccccc3)nc2c1" in this test
A: inactive

Q: Query: recorded result category for O=C1NC(c2ccncc2)Nc2sc3c(c21)CCCC3 (configuration not stated) in this test
A: inactive

Q: Query: recorded result category for COc1ccc2[nH]c3c(c2c1)CCN1C(=O)C(CC(=O)NCCCN(C)C)C[C@H](C(=O)N2CCOCC2)[C@@]31CCC1CCCC1 (some centres not stated) in this test
A: inactive

Q: Query: recorded result category for "CCCN=C1N(C)C[C@@H]2[C@@H]3C(=O)N(Cc4ccccc4)C(=O)[C@@H]3[C@](C)(C(=O)OC)N12" in this test
A: inactive

Q: Query: recorded result category for "CCCn1nc(C(=O)OCc2nc(N)nc(Nc3ccccc3C)n2)c2ccccc2c1=O" in this test
A: inactive

Q: Query: recorded result category for "Cc1c(NC(=O)CN(C)CC(=O)Nc2ccc(F)c(F)c2F)c(=O)n(-c2ccccc2)n1C" in this test
A: inactive

Q: Query: recorded result category for "O=C(CSc1nc2[nH]ncc2c(=O)[nH]1)Nc1ccc(F)cc1" in this test
A: inactive

Q: Query: recorded result category for "O=C(Nc1ccccc1N1CCCCC1)c1ccc2nccnc2c1" in this test
A: active

Q: Query: recorded result category for "C#CCOCCOCCOCCNc1nc(N2CCN(C(=O)Cn3cc(CCO)nn3)CC2)nc(N2CCN(C(=O)[C@H](CCCCN)n3cc(CCCC)nn3)CC2)n1" in this test
A: inactive

Q: Query: recorded result category for C/C(=C\c1ccccc1)C1NC(=O)c2c(sc3c2CCCC3)N1 (configuration not stated) in this test
A: active

Q: Query: recorded result category for Cc1cc(C)cc(NC(=O)C(c2ccccc2)N2CCN(CC(=O)N3CCCC3)CC2)c1 (configuration not stated) in this test
A: inactive

Q: Query: recorded result category for CC(=O)Nc1ccc(NC(=O)C(NS(=O)(=O)c2ccc3c(c2)OCCO3)C(C)C)cc1 (configuration not stated) in this test
A: inactive

Q: Query: recorded result category for O=C1CCCCC1C(=O)c1ccccc1 (configuration not stated) in this test
A: inactive

Q: Query: recorded result category for CC(C)(C)c1ccc(/C=C/C(=O)NC2CCS(=O)(=O)C2)cc1 (configuration not stated) in this test
A: active

Q: Query: recorded result category for "Nn1c(SCC(=O)Nc2nccs2)nnc1-c1ccco1" in this test
A: inactive

Q: Query: recorded result category for COc1ccc(C(C(O)C(=O)c2c[nH]c3ccccc23)N2CCN(c3ccccc3)CC2)cc1 (configuration not stated) in this test
A: inactive

Q: Query: recorded result category for "Cc1cc(C)c2c(=O)[nH]c(SCC(=O)Nc3ccc(Br)cc3)nc2n1" in this test
A: active

Q: Query: recorded result category for "CCc1c(Nc2ccccc2C)nc(N)[nH]c1=O" in this test
A: inactive

Q: Query: recorded result category for "COc1ccc(/C=C(\C#N)c2c[nH]c3ccccc23)cc1" in this test
A: active

Q: Query: recorded result category for "Cc1cnc(NC(=O)c2ccc(Cl)nc2)s1" in this test
A: inactive

Q: Query: recorded result category for "O=C(Nc1ccc(CN2CCOCC2)cc1)c1cc(Cl)ccc1Cl" in this test
A: inactive

Q: Query: recorded result category for "CC(C)(C)OC(=O)C[C@H]1C/C=C\C[C@@H](CC(=O)N[C@H](CO)Cc2ccccc2)C(=O)NC[C@@H](c2ccccc2)OC1=O" in this test
A: inactive

Q: Query: recorded result category for "CC1CCN(C(=S)NC(=O)c2ccccc2Br)CC1" in this test
A: inactive

Q: Query: recorded result category for Nc1ccccc1SC(C[N+](=O)[O-])c1ccccc1 (configuration not stated) in this test
A: active

Q: Query: recorded result category for CC(=O)NC1=NN(C(C)=O)C(C)(c2ccc(C)cc2)S1 (configuration not stated) in this test
A: inactive

Q: Query: recorded result category for "Cc1onc(-c2ccccc2Cl)c1C(=O)OCc1nnc(-c2ccccc2)o1" in this test
A: inactive

Q: Query: recorded result category for "COc1cc(NC(=O)COC(=O)c2cc(S(=O)(=O)N3CCOCC3)ccc2F)cc(OC)c1" in this test
A: inactive

Q: Query: recorded result category for "CCN(CC)c1ccc(NC(=O)c2ccc(Cl)nc2)cc1" in this test
A: active

Q: Query: recorded result category for "O=C(NNC(=O)c1ccc(Cl)nc1)c1ccc(Br)cc1" in this test
A: inactive

Q: Query: recorded result category for "CCOC(=O)N(Cc1ccccc1)C1CC1" in this test
A: inactive

Q: Query: recorded result category for "O=C(C[C@H]1C/C=C\C[C@@H](NC(=O)OCC2c3ccccc3-c3ccccc32)C(=O)O[C@@H](c2ccccc2)CNC1=O)N[C@H](CO)Cc1ccccc1" in this test
A: active

Q: Query: recorded result category for Cc1ccc(S(=O)(=O)N2CCN(C(=O)CN3C(=O)NC(C)(c4ccc(Cl)cc4)C3=O)CC2)c(C)c1 (configuration not stated) in this test
A: inactive

Q: Query: recorded result category for CC(=O)NC1=NN(C(C)=O)C(C)(c2ccc(Cl)s2)S1 (configuration not stated) in this test
A: active

Q: Query: recorded result category for "Cc1csc(SCC(=O)N(c2ccccc2)C(C)C)n1" in this test
A: inactive

Q: Query: recorded result category for "COc1ccccc1NS(=O)(=O)c1ccc(C)c(C(=O)NNC(=O)c2csc(N3CCOCC3)n2)c1" in this test
A: inactive
